Hey, just so you know, these numbers are from PubChem BioAssay AID1745844.

# Test system: rodent lifetime carcinogenesis bioassay, tumor incidence TD50
# experiment-summary: carcinogenic potency in animals, long-term in vivo studies, CPDB compilation (AID 1745844)
# measurement-context: mouse; strain Charles River CD1; males; in feed; site: any site (literature study); lesion: benign tumor; dosed 104 weeks; study length 104 weeks
The source made the active and inactive calls. No rule for the calls is given here.
Listed next: entries and their corresponding TD50.
measured-endpoint: TD50

[[record]]
compound = "O=C(O)C1=NN(c2ccc(S(=O)(=O)O)cc2)C(=O)C1N=Nc1ccc(S(=O)(=O)O)cc1 (configuration not stated)"
readout_value = "388 mg/kg/day (inactive)"

[[record]]
compound = "O=C1OC2(c3ccccc31)c1cc(I)c(O)c(I)c1Oc1c2cc(I)c(O)c1I"
readout_value = "25900 mg/kg/day (inactive)"


###

# Test system: rodent lifetime carcinogenesis bioassay, tumor incidence TD50
# experiment-summary: carcinogenic potency in animals, long-term in vivo studies, CPDB compilation (AID 1745844)
# measurement-context: mouse; strain B6C3F1; females; in feed; site: any site (literature study); lesion: several types; types named in the paper; dosed 103 weeks; study length 105 weeks
The source made the active and inactive calls. How the calls were made is not given here.
measured-endpoint: TD50

[[record]]
smiles_structure = "Cc1cc(N=Nc2c(O)ccc3ccccc23)c(S(=O)(=O)O)cc1Cl"
measured_endpoint = "TD50"
readout_value = "18200 mg/kg/day (inactive)"

[[record]]
smiles_structure = "Oc1ccc2ccccc2c1N=Nc1ccccc1"
measured_endpoint = "TD50"
readout_value = "391 mg/kg/day"

[[record]]
smiles_structure = "CC(=O)Nc1ccc(N=Nc2cc(C)ccc2O)cc1"
measured_endpoint = "TD50"
readout_value = "769 mg/kg/day"

[[record]]
smiles_structure = "Cc1c(N)cccc1N"
measured_endpoint = "TD50"
readout_value = "75.9 mg/kg/day"

[[record]]
smiles_structure = "N=C1C=CC(=C(c2ccc(N)cc2)c2ccc(N)cc2)C=C1"
measured_endpoint = "TD50"
readout_value = "23.4 mg/kg/day"

[[record]]
smiles_structure = "COC(=O)c1ccc(C(=O)OC)cc1"
measured_endpoint = "TD50"
readout_value = "4340 mg/kg/day (inactive)"

[[record]]
smiles_structure = "Nc1cccc2c(N)cccc12"
measured_endpoint = "TD50"
readout_value = "223 mg/kg/day"


###

# Test system: rodent lifetime carcinogenesis bioassay, tumor incidence TD50
# experiment-summary: carcinogenic potency in animals, long-term in vivo studies, CPDB compilation (AID 1745844)
# measurement-context: rat; strain Charles River CD (Sprague-Dawley); males; in feed; site: liver; lesion: carcinoma; dosed 66 weeks; study length 66 weeks
measured-endpoint: TD50 (mg/kg/day)

[[record]]
smiles_structure = "CC/C(=C(/CC)c1ccc(O)cc1)c1ccc(O)cc1"
units_label = "mg/kg/day"
readout_value = 1.21


###

# Test system: rodent lifetime carcinogenesis bioassay, tumor incidence TD50
# experiment-summary: carcinogenic potency in animals, long-term in vivo studies, CPDB compilation (AID 1745844)
# measurement-context: mouse; strain B6C3F1; females; oral dosing; site: any site (literature study); lesion: several types; types named in the paper; dosed 76 weeks; study length 76 weeks
The source made the active and inactive calls. The rule behind the calls is not given here.
Listed next: entries and their corresponding TD50.
measured-endpoint: TD50

[[record]]
smiles_structure = "CCN(CC)C(=S)[S-].CCN(CC)C(=S)[S-].[Cd+2]"
tested_on = "rodent lifetime carcinogenesis bioassay, tumor incidence TD50"
measured_endpoint = "TD50"
readout_value = "18 mg/kg/day (inactive)"

[[record]]
smiles_structure = "O=C1c2ccccc2C(=O)N1SC(Cl)(Cl)Cl"
tested_on = "rodent lifetime carcinogenesis bioassay, tumor incidence TD50"
measured_endpoint = "TD50"
readout_value = "260 mg/kg/day (inactive)"

[[record]]
smiles_structure = "CCCCOC(=O)COc1ccc(Cl)cc1Cl"
tested_on = "rodent lifetime carcinogenesis bioassay, tumor incidence TD50"
measured_endpoint = "TD50"
readout_value = "29.7 mg/kg/day (inactive)"

[[record]]
smiles_structure = "CCN(CC)C(=S)S[Te](SC(=S)N(CC)CC)(SC(=S)N(CC)CC)SC(=S)N(CC)CC"
tested_on = "rodent lifetime carcinogenesis bioassay, tumor incidence TD50"
measured_endpoint = "TD50"
readout_value = "63.5 mg/kg/day"

[[record]]
smiles_structure = "c1ccc(Nc2ccc3ccccc3c2)cc1"
tested_on = "rodent lifetime carcinogenesis bioassay, tumor incidence TD50"
measured_endpoint = "TD50"
readout_value = "1080 mg/kg/day"


###

# System: rodent lifetime carcinogenesis bioassay, tumor incidence TD50
# experiment-summary: carcinogenic potency in animals, long-term in vivo studies, CPDB compilation (AID 1745844)
# measurement-context: mouse; strain CD-1 HaM/ICR; females; in feed; site: any site (literature study); lesion: several types; types named in the paper; dosed 51 weeks; study length 60 weeks
measured-endpoint: TD50 (mg/kg/day)

[[record]]
smiles_structure = "Cc1cc(Cl)ccc1N"
measured_endpoint = "TD50"
readout_value = 15.6


###

# System: rodent lifetime carcinogenesis bioassay, tumor incidence TD50
# experiment-summary: carcinogenic potency in animals, long-term in vivo studies, CPDB compilation (AID 1745844)
# measurement-context: rat; strain Sandoz; males; in feed; site: adrenal gland; lesion: malignant tumor; dosed 104 weeks; study length 104 weeks
Activity calls are given as the source filed them. The rule behind the calls is not given here.
measured-endpoint: TD50

[[record]]
smiles_structure = "Cc1ccc2c(-c3cccc(O)c3)nc(=O)n(C(C)C)c2c1"
measured_endpoint = "TD50"
readout_value = "113 mg/kg/day (inactive)"


###

# Tested on: rodent lifetime carcinogenesis bioassay, tumor incidence TD50
# experiment-summary: carcinogenic potency in animals, long-term in vivo studies, CPDB compilation (AID 1745844)
# measurement-context: mouse; strain RF; males; in drinking water; site: liver; lesion: one or several types; types not named; dosed 104 weeks; study length 104 weeks
Calls of active or inactive are those of the source. How the calls were made is not given here.
measured-endpoint: TD50

[[record]]
smiles_structure = "COS(C)(=O)=O"
readout_value = "3980 mg/kg/day (inactive)"


###

# Tested on: rodent lifetime carcinogenesis bioassay, tumor incidence TD50
# experiment-summary: carcinogenic potency in animals, long-term in vivo studies, CPDB compilation (AID 1745844)
# measurement-context: mouse; strain Crj:BDF1; males; inhaled; site: Harderian gland; lesion: adenoma; dosed 104 weeks; study length 104 weeks
measured-endpoint: TD50

[[record]]
smiles_structure = "ClC(Cl)=C(Cl)Cl"
measured_endpoint = "TD50"
readout_value = "2330 mg/kg/day"


###

# Tested on: rodent lifetime carcinogenesis bioassay, tumor incidence TD50
# experiment-summary: carcinogenic potency in animals, long-term in vivo studies, CPDB compilation (AID 1745844)
# measurement-context: rat; strain Fischer 344; males; in feed; site: large intestine; lesion: adenomatous polyp; dosed 27 weeks; study length 104 weeks
measured-endpoint: TD50

[[record]]
smiles_structure = "COc1ccccc1[N+](=O)[O-]"
readout_value = "8.58 mg/kg/day"


###

# System: rodent lifetime carcinogenesis bioassay, tumor incidence TD50
# experiment-summary: carcinogenic potency in animals, long-term in vivo studies, CPDB compilation (AID 1745844)
# measurement-context: rat; strain Fischer 344; males; in feed; site: Zymbal's gland; lesion: carcinoma, NOS; dosed 103 weeks; study length 104 weeks
measured-endpoint: TD50

[[record]]
smiles_structure = "N=C1C=CC(=C(c2ccc(N)cc2)c2ccc(N)cc2)C=C1"
readout_value = "124 mg/kg/day"


###

# Tested on: rodent lifetime carcinogenesis bioassay, tumor incidence TD50
# experiment-summary: carcinogenic potency in animals, long-term in vivo studies, CPDB compilation (AID 1745844)
# measurement-context: rat; strain Sprague-Dawley; females; in feed; site: uterus; lesion: leiomyosarcoma; dosed 46 weeks; study length 60 weeks
measured-endpoint: TD50

[[record]]
smiles_structure = "CN(C)N=Nc1nc[nH]c1C(N)=O"
tested_on = "rodent lifetime carcinogenesis bioassay, tumor incidence TD50"
readout_value = "6.55 mg/kg/day"


###

# Test system: rodent lifetime carcinogenesis bioassay, tumor incidence TD50
# experiment-summary: carcinogenic potency in animals, long-term in vivo studies, CPDB compilation (AID 1745844)
# measurement-context: rat; strain Fischer 344; males; inhaled; site: lung; lesion: alveolar/bronchiolar carcinoma; dosed 103 weeks; study length 105 weeks
measured-endpoint: TD50

[[record]]
molecule = "CCC1CO1 (stereo unspecified)"
measured_endpoint = "TD50"
readout_value = "314 mg/kg/day"


###

# Test system: rodent lifetime carcinogenesis bioassay, tumor incidence TD50
# experiment-summary: carcinogenic potency in animals, long-term in vivo studies, CPDB compilation (AID 1745844)
# measurement-context: mouse; strain B6C3F1; females; by gavage; site: all sites; lesion: malignant lymphoma, histiocytic type; dosed 103 weeks; study length 106 weeks
measured-endpoint: TD50

[[record]]
smiles_structure = "C=CCOC(=O)CC(C)C"
readout_value = "238 mg/kg/day"


###

# System: rodent lifetime carcinogenesis bioassay, tumor incidence TD50
# experiment-summary: carcinogenic potency in animals, long-term in vivo studies, CPDB compilation (AID 1745844)
# measurement-context: rat; strain Fischer 344; females; in feed; site: any site (literature study); lesion: several types; types named in the paper; dosed 103 weeks; study length 105 weeks
Activity calls are given as the source filed them. No rule for the calls is given here.
measured-endpoint: TD50

[[record]]
smiles_structure = "CC"
tested_on = "rodent lifetime carcinogenesis bioassay, tumor incidence TD50"
measured_endpoint = "TD50"
readout_value = "8310 mg/kg/day (inactive)"

[[record]]
smiles_structure = "Nc1nc(N)nc(N)n1"
tested_on = "rodent lifetime carcinogenesis bioassay, tumor incidence TD50"
measured_endpoint = "TD50"
readout_value = "3930 mg/kg/day"

[[record]]
smiles_structure = "COC(=O)c1ccc(C(=O)OC)cc1"
tested_on = "rodent lifetime carcinogenesis bioassay, tumor incidence TD50"
measured_endpoint = "TD50"
readout_value = "342 mg/kg/day (inactive)"

[[record]]
smiles_structure = "CCOC(=O)/C(Cl)=N/Nc1ccccc1"
tested_on = "rodent lifetime carcinogenesis bioassay, tumor incidence TD50"
measured_endpoint = "TD50"
readout_value = "29500 mg/kg/day"

